# assayedTarget: interaction between PD-1 and PD-L1 expressed on cell surfaces (Homo sapiens (Human), UniProt Q9NZQ7)
# Sequence (Q9NZQ7 19-290): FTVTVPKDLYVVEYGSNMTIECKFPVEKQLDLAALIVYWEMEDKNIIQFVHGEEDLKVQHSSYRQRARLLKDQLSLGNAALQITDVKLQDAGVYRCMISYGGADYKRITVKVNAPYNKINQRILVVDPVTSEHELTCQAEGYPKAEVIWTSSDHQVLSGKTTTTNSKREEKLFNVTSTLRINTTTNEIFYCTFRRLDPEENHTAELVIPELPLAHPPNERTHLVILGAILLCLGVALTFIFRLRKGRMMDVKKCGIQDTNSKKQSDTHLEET
# testProtocol: Jurkat reporter gene cellular assay (Jurkat/NF-κB-luc/PD1 cells cocultured with Raji-PD-L1 cells, OKT-3 stimulation)
# Type: cell-based
# statedConditions: NF-κB-luc reporter activation fold, 6 hrs; read-out: Cell Activity EC50
attributeMeasured: EC50

Study these solved cases before continuing.
COc1cc(C(=O)Nc2cccc(-c3cccc(NC(=O)c4cc(OC)c(CN5CC6(COC6)C5)cn4)c3C)c2C)ncc1CN1CC2(COC2)C1; 625 nM
CCOC(=O)[C@@H](CO)NCc1cnc(C(=O)Nc2cccc(-c3cccc(NC(=O)c4cc(C5CC5)c(CN[C@H](CO)C(=O)OCC)cn4)c3C)c2C)cc1C1CC1; 1260 nM
COc1cc(C(=O)Nc2cccc(-c3cccc(NC(=O)c4cc(OC)c(CN[C@@H]5CCOC5=O)cn4)c3C)c2C)ncc1CN[C@@H]1CCOC1=O; 2200 nM
Cc1c(NC(=O)c2cc(C3CC3)c(CN[C@@H](C)C(=O)O)cn2)cccc1-c1cccc(NC(=O)c2cc(C3CC3)c(CN[C@@H](C)C(=O)O)cn2)c1C; 14.7 nM
Cc1c(NC(=O)c2cc(C3CC3)c(CN3CCC(O)CC3)cn2)cccc1-c1cccc(NC(=O)c2cc(C3CC3)c(CN3CCC(O)CC3)cn2)c1C; 194 nM

Shifting focus to the compound that follows.
QUERY: Quick check: EC50 of Cc1c(NC(=O)c2cc(C3CC3)c(CNCCO)cn2)cccc1-c1cccc(NC(=O)c2cc(C3CC3)c(CNCCO)cn2)c1C ?
RESULT: 39 nM

====

The compounds listed here are annotated with their IC50.
# assayedTarget: interaction between PD-1 and PD-L1 (Homo sapiens (Human), UniProt Q9NZQ7)
# testProtocol: PD1-PDL1 HTRF binding activity test (Cisbio PD-1/PD-L1 binding assay kit)
# statedConditions: read-out: PD1-PDL1 HTRF Binding Activity IC50
Could you give me the number in nM? Just the number is fine.

Study these solved cases before continuing.
Cc1c(NC(=O)c2cc(C3CC3)c(CN[C@@H](CO)C(=O)O)cn2)cccc1-c1cccc(NC(=O)c2cc(C3CC3)c(CN[C@@H](CO)C(=O)O)cn2)c1C [Example 108]; 0.84
COc1cc(C(=O)Nc2cccc(-c3cccc(NC(=O)c4cc(OC)c(CNCCNC(C)=O)cn4)c3C)c2C)ncc1CNCCNC(C)=O [Example 39]; 0.86

Shifting focus to the compound that follows.
QUERY: Field: IC50 (interaction between PD-1 and PD-L1 (Homo sapiens (Human), UniProt Q9NZQ7)). Entry: Cc1c(NC(=O)c2cc(C3CC3)c(CN[C@H](CC(=O)O)C(=O)O)cn2)cccc1-c1cccc(NC(=O)c2cc(C3CC3)c(CN[C@H](CC(=O)O)C(=O)O)cn2)c1C [Example 118]
RESULT: 1.17

====

# assayedTarget: interaction between PD-1 and PD-L1 expressed on cell surfaces (Homo sapiens (Human), UniProt Q9NZQ7)
# testProtocol: Jurkat reporter gene cellular assay (Jurkat/NF-κB-luc/PD1 cells cocultured with Raji-PD-L1 cells, OKT-3 stimulation)
# Assay type: cell-based
# statedConditions: NF-κB-luc reporter activation fold, 6 hrs; read-out: Cell Activity EC50
The compounds listed here are annotated with their pEC50.
pEC50 here is simply -log10 of the concentration when that concentration is written in mol/L.

COc1cc(C(=O)Nc2cccc(-c3cccc(NC(=O)c4cc(OC)c(CN5CC[C@H](O)C5)cn4)c3C)c2C)ncc1CN1CC[C@H](O)C1; 6.99
COc1cc(C(=O)Nc2cccc(-c3cccc(NC(=O)c4cc(OC)c(CNC[C@@H](O)CC(=O)O)cn4)c3C)c2C)ncc1CNC[C@@H](O)CC(=O)O; 7.15
COc1cc(C(=O)Nc2cccc(-c3cccc(NC(=O)c4cc(OC)c(CN[C@H](C)CO)cn4)c3C)c2C)ncc1CN[C@H](C)CO; 7.22

Shifting focus to the compound that follows.
QUERY: Quick check: pEC50 of Cc1c(NC(=O)c2cc(C3CC3)c(CNCC(=O)O)cn2)cccc1-c1cccc(NC(=O)c2cc(C3CC3)c(CNCC(=O)O)cn2)c1C ?
RESULT: 7.72

====

The molecules listed here are annotated with their IC50.
# assayedTarget: interaction between PD-1 and PD-L1 (Homo sapiens (Human))
# testProtocol: PD1-PDL1 HTRF binding activity test (Cisbio PD-1/PD-L1 binding assay kit)
# statedConditions: read-out: PD1-PDL1 HTRF Binding Activity IC50
Could you give me the number in nM? Just the number is fine.

Study these solved cases before continuing.
COc1cc(C(=O)Nc2cccc(-c3cccc(NC(=O)c4cc(OC)c(CNCCN=S(C)(C)=O)cn4)c3C)c2C)ncc1CNCCN=S(C)(C)=O [Example 89]; 0.87
Cc1c(NC(=O)c2cc(C3CC3)c(CN[C@@H](C)C(=O)O)cn2)cccc1-c1cccc(NC(=O)c2cc(C3CC3)c(CN[C@@H](C)C(=O)O)cn2)c1C [Example 124]; 1.09
COC(=O)[C@@H](CO)NCc1cnc(C(=O)Nc2cccc(-c3cccc(NC(=O)c4cc(C5CC5)c(CN[C@H](CO)C(=O)OC)cn4)c3C)c2C)cc1C1CC1 [Example 104]; 1.57

QUERY: Field: IC50 (interaction between PD-1 and PD-L1 (Homo sapiens (Human))). Entry: COc1cc(C(=O)Nc2cccc(-c3cccc(NC(=O)c4cc(OC)c(CN[C@H](CO)C(N)=O)cn4)c3C)c2C)ncc1CN[C@H](CO)C(N)=O [Example 86]
RESULT: 1.34

QUERY: Likewise for Cc1cc(C(=O)Nc2cccc(-c3cccc(NC(=O)c4cc(C)c(CN5CCNC(=O)C5)cn4)c3C)c2C)ncc1CN1CCNC(=O)C1 [Example 17] ?
RESULT: 1.5

QUERY: Likewise for COc1cc(C(=O)Nc2cccc(-c3cccc(NC(=O)c4cc(OC)c(CNCCOC(F)F)cn4)c3C)c2C)ncc1CNCCOC(F)F [Example 35] ?
RESULT: 1.11

====

The compounds listed here are annotated with their log10(EC50).
# assayedTarget: interaction between PD-1 and PD-L1 expressed on cell surfaces (Homo sapiens (Human))
# testProtocol: Jurkat reporter gene cellular assay (Jurkat/NF-κB-luc/PD1 cells cocultured with Raji-PD-L1 cells, OKT-3 stimulation)
# Assay type: cell-based
# statedConditions: NF-κB-luc reporter activation fold, 6 hrs; read-out: Cell Activity EC50
# Method: B. Jurkat Reporter Gene Cellular Assay The effect of compounds of the examples of the present invention and positive compounds on the interaction between PD-1 and PD-L1 expressed on cell surfaces, and the related influence on T cell functions, were determined by a Jurkat reporter gene cellular assay. […] 4. the reading of each well treated with the compound was compared with the reading of each well treated with DMSO to obtain the activation fold of the compound; and […]
Answers are given as log10 of EC50 in µM.

Cc1cc(C(=O)Nc2cccc(-c3cccc(NC(=O)c4cc(C)c(CNCC(=O)O)cn4)c3C)c2C)ncc1CNCC(=O)O [Example 25]; -0.91
Cc1cc(C(=O)Nc2cccc(-c3cccc(NC(=O)c4cc(C)c(CN[C@H]5CC[C@H](O)CC5)cn4)c3C)c2C)ncc1CN[C@H]1CC[C@H](O)CC1 [Example 19]; -1.07
COc1cc(C(=O)Nc2cccc(-c3cccc(NC(=O)c4cc(OC)c(CN5CC[C@@H](OC)C5)cn4)c3C)c2C)ncc1CN1CC[C@@H](OC)C1 [Example 50]; -0.64
COc1cc(C(=O)Nc2cccc(-c3cccc(NC(=O)c4cc(OC)c(CN5CC(O)C5)cn4)c3C)c2C)ncc1CN1CC(O)C1 [Example 45]; -1.39
CCOC(=O)[C@H](C)NCc1cnc(C(=O)Nc2cccc(-c3cccc(NC(=O)c4cc(C5CC5)c(CN[C@@H](C)C(=O)OCC)cn4)c3C)c2C)cc1C1CC1 [Example 123]; 0.38
COc1cc(C(=O)Nc2cccc(-c3cccc(NC(=O)c4cc(OC)c(CN[C@@H]5CCOC5)cn4)c3C)c2C)ncc1CN[C@@H]1CCOC1 [Example 56]; -0.76
COc1cc(C(=O)Nc2cccc(-c3cccc(NC(=O)c4cc(OC)c(CN5CCOCC5)cn4)c3C)c2C)ncc1CN1CCOCC1 [Example 31]; 0.32
COc1cc(C(=O)Nc2cccc(-c3cccc(NC(=O)c4cc(OC)c(CN[C@@H](C)CO)cn4)c3C)c2C)ncc1CN[C@@H](C)CO [Example 43]; -1.96
Cc1cc(C(=O)Nc2cccc(-c3cccc(NC(=O)c4cc(C)c(CNCC5(O)CC5)cn4)c3C)c2C)ncc1CNCC1(O)CC1 [Example 10]; -1.30
COCCN(C)Cc1cnc(C(=O)Nc2cccc(-c3cccc(NC(=O)c4cc(OC)c(CN(C)CCOC)cn4)c3C)c2C)cc1OC [Example 36]; -0.34

QUERY: Quick check: log10(EC50) of Cc1cc(C(=O)Nc2cccc(-c3cccc(NC(=O)c4cc(C)c(CN[C@@H]5CCOC[C@H]5O)cn4)c3C)c2C)ncc1CN[C@@H]1CCOC[C@H]1O [Example 18] ?
RESULT: -0.68

Values from patent US11459339B2
